Test system: HCC-2998 colon
PROTOCOL: NCI tumour cell line growth inhibition, 48 h

>  <COMPOUND>
Cc1ccc(S(=O)(=O)N2CC(CCN)c3ccccc32)cc1 (configuration not stated)

>  <SYSTEM_TESTED>
HCC-2998 colon

>  <MODIFIER_SIGN>
=

>  <TGI (µM)>
30.3

$$$$
>  <COMPOUND>
CNC(=O)N1N[C@H](c2ccccc2)[C@@H]1c1ccccc1

>  <SYSTEM_TESTED>
HCC-2998 colon

>  <MODIFIER_SIGN>
=

>  <TGI (µM)>
68.8

$$$$
>  <COMPOUND>
COc1cc(-c2cc(=O)c3ccccc3[nH]2)cc(OC)c1OC

>  <SYSTEM_TESTED>
HCC-2998 colon

>  <MODIFIER_SIGN>
>

>  <TGI (µM)>
75

$$$$
>  <COMPOUND>
CC1=NNC(=S)NCCCN2CCN(CCCNC(=S)NN=C(C)C=NNC(=S)NCCCN3CCN(CCCNC(=S)NN=C1)CC3)CC2

>  <SYSTEM_TESTED>
HCC-2998 colon

>  <MODIFIER_SIGN>
>

>  <TGI (µM)>
100

$$$$
>  <COMPOUND>
COc1ccc(OC)c(Cc2cnc3nc(N)nc(N)c3c2C)c1

>  <SYSTEM_TESTED>
HCC-2998 colon

>  <MODIFIER_SIGN>
=

>  <TGI (µM)>
16.4

$$$$
>  <COMPOUND>
CN(C)c1nc(N)c(C#N)c(C#N)c1C#N

>  <SYSTEM_TESTED>
HCC-2998 colon

>  <MODIFIER_SIGN>
>

>  <TGI (µM)>
10

$$$$
>  <COMPOUND>
Cc1cn(C2CC(O)C(Cn3nncc3Cn3ncc(=O)[nH]c3=O)O2)c(=O)[nH]c1=O (configuration not stated)

>  <SYSTEM_TESTED>
HCC-2998 colon

>  <MODIFIER_SIGN>
>

>  <TGI (µM)>
100

$$$$
>  <COMPOUND>
COc1ccc2c(c1)C(=O)c1c-2c(=O)n(CCCN(C)C)c2cc(OC)c(OC)cc12

>  <SYSTEM_TESTED>
HCC-2998 colon

>  <MODIFIER_SIGN>
=

>  <TGI (µM)>
27.3

$$$$
>  <COMPOUND>
CC(=O)OCC(CC[CH2][Sn]([Cl])([Cl])[c]1ccccc1)OC(C)=O (configuration not stated)

>  <SYSTEM_TESTED>
HCC-2998 colon

>  <MODIFIER_SIGN>
=

>  <TGI (µM)>
83.1

$$$$
>  <COMPOUND>
O=C(/C=C(\Nc1ccccc1O)c1ccc(Br)cc1)C(Cl)(Cl)Cl

>  <SYSTEM_TESTED>
HCC-2998 colon

>  <MODIFIER_SIGN>
=

>  <TGI (µM)>
5.88

$$$$
>  <COMPOUND>
COc1ccc(-c2c3c(N)c4c(nc3nc3c2c(C)nn3-c2ccccc2)CCCC4)cc1

>  <SYSTEM_TESTED>
HCC-2998 colon

>  <MODIFIER_SIGN>
=

>  <TGI (µM)>
12.7

$$$$
>  <COMPOUND>
O=[N+]([O-])/C=C/c1cn(CCCCCCCCCCCCn2cc(/C=C/[N+](=O)[O-])c3ccccc32)c2ccccc12

>  <SYSTEM_TESTED>
HCC-2998 colon

>  <MODIFIER_SIGN>
>

>  <TGI (µM)>
100

$$$$

====

Tested on: CCRF-CEM leukemia
PROTOCOL: NCI tumour cell line growth inhibition, 48 h
MEASUREMENT_KIND: TGI

>  <MOLECULE>
N#C/C(=C\c1cc2ccc(N3CCC3)cc2oc1=O)C(=O)N(CC(=O)O)CC(=O)O

>  <SYSTEM_TESTED>
CCRF-CEM leukemia

>  <MEASUREMENT_KIND>
TGI

>  <OBSERVED_RESULT>
> 100 µM

$$$$
>  <MOLECULE>
C[P+]1(c2ccccc2)CCCCC1

>  <SYSTEM_TESTED>
CCRF-CEM leukemia

>  <MEASUREMENT_KIND>
TGI

>  <OBSERVED_RESULT>
> 100 µM

$$$$
>  <MOLECULE>
COc1ccc(OC)c(Cc2cnc3nc(N)nc(N)c3c2C)c1

>  <SYSTEM_TESTED>
CCRF-CEM leukemia

>  <MEASUREMENT_KIND>
TGI

>  <OBSERVED_RESULT>
29.4 µM

$$$$
>  <MOLECULE>
Nc1n[nH]c(CCCCCCCc2nc(N)n[nH]2)n1

>  <SYSTEM_TESTED>
CCRF-CEM leukemia

>  <MEASUREMENT_KIND>
TGI

>  <OBSERVED_RESULT>
> 100 µM

$$$$
>  <MOLECULE>
COc1cc(C(=O)O)c(-c2cc3c(cc2C=O)OCO3)c(OC)c1OC

>  <SYSTEM_TESTED>
CCRF-CEM leukemia

>  <MEASUREMENT_KIND>
TGI

>  <OBSERVED_RESULT>
> 10 µM

$$$$
>  <MOLECULE>
O=c1[nH]c(=S)[nH]c(-c2ccccc2)c1Cc1c(O)ccc2ccccc12

>  <SYSTEM_TESTED>
CCRF-CEM leukemia

>  <MEASUREMENT_KIND>
TGI

>  <OBSERVED_RESULT>
41 µM

$$$$
>  <MOLECULE>
O=S(=O)(NCCCNc1nccc(-c2c(-c3ccc(F)cc3)nc3sccn23)n1)c1ccc(F)cc1

>  <SYSTEM_TESTED>
CCRF-CEM leukemia

>  <MEASUREMENT_KIND>
TGI

>  <OBSERVED_RESULT>
> 100 µM

$$$$
>  <MOLECULE>
Nc1nc(-c2ccc(Cl)cc2)nc2c1sc(=S)n2-c1ccccc1

>  <SYSTEM_TESTED>
CCRF-CEM leukemia

>  <MEASUREMENT_KIND>
TGI

>  <OBSERVED_RESULT>
> 100 µM

$$$$
>  <MOLECULE>
CC(C)CCC[C@@H](C)[C@H]1CC[C@H]2C3=C[C@H](OS(=O)(=O)O)[C@@]4(O)C[C@@H](O)CC[C@]4(C)[C@@]3(O)CC[C@]12C

>  <SYSTEM_TESTED>
CCRF-CEM leukemia

>  <MEASUREMENT_KIND>
TGI

>  <OBSERVED_RESULT>
> 100 µM

$$$$
>  <MOLECULE>
CCOC(=O)C(Cc1ccc(N(CCCl)CCCl)cc1)NC(=O)C(Cc1ccccc1)NC(C)=O (stereo not given)

>  <SYSTEM_TESTED>
CCRF-CEM leukemia

>  <MEASUREMENT_KIND>
TGI

>  <OBSERVED_RESULT>
0.213 µM

$$$$

====

System: HOP-62 NSCLC
PROTOCOL: NCI tumour cell line growth inhibition, 48 h

>  <COMPOUND>
S=C(NCc1ccc2c(c1)OCO2)N1CCN(c2ncnc3c2oc2ccccc23)CC1

>  <GI50>
> 100 µM

$$$$
>  <COMPOUND>
C=CCN(CC=C)C(=O)[C@H](CC)[C@@H]1CC[C@@H](C)[C@@H]([C@H](C)[C@@H](O)[C@@H](C)C(=O)[C@H](CC)C2O[C@]3(C=C[C@@H](O)[C@]4(CC[C@@](C)([C@H]5CC[C@](O)(CC)[C@H](C)O5)O4)O3)[C@H](C)C[C@@H]2C)O1 (stereo partly drawn)

>  <GI50>
3.22 µM

$$$$
>  <COMPOUND>
COc1ccc(/C=N\Nc2nc(SCC(C)C)nc(-c3ccc(OC)cc3)c2C#N)cc1

>  <GI50>
0.414 µM

$$$$
>  <COMPOUND>
C[C@H]1CN(C2COC2)CCN1c1ccc(Nc2cc(-c3ccnc(N4CCn5c(cc6c5CC(C)(C)C6)C4=O)c3CO)cn(C)c2=O)nc1

>  <GI50>
39.1 µM

$$$$
>  <COMPOUND>
N#Cc1cccc(Nc2ncc(-c3ccccc3)o2)c1

>  <GI50>
6.69 µM

$$$$
>  <COMPOUND>
COC1=C(OC)[C@]2(OC)c3c(O)c(OC)c4c(c3O[C@@]23O[C@@H](c2ccccc2)CC=C3C1=O)[C@@H](OC)C[C@H](c1ccccc1)O4

>  <GI50>
2.33 µM

$$$$
>  <COMPOUND>
CCn1ccnc1C(=O)/C=C/c1ccc(CC(=O)Nc2ccc(F)cc2)cc1

>  <GI50>
3.92 µM

$$$$
>  <COMPOUND>
COc1ccc(C2CC(c3ccc(N(C)C)cc3)=NN2c2ccc(S(N)(=O)=O)cc2)cc1 (stereo not drawn)

>  <GI50>
3.96 µM

$$$$
>  <COMPOUND>
O=C1/C(=C/c2ccccc2[N+](=O)[O-])COc2ccc(O)cc21

>  <GI50>
5.21 µM

$$$$
>  <COMPOUND>
COc1ccc(COc2cc3oc(=O)c4cc(C(C)O)ccc4c3cc2OC)cc1 (stereo not drawn)

>  <GI50>
8.15 µM

$$$$
>  <COMPOUND>
Cc1ccc(-n2c(-c3cc4c([nH]c5ccccc54)c(-c4cccc(O)c4)n3)n[nH]c2=S)cc1

>  <GI50>
1.24 µM

$$$$
>  <COMPOUND>
C/C(=N\NC(=S)N1CCN(c2ccccn2)CC1)c1ncccn1

>  <GI50>
0.0865 µM

$$$$
>  <COMPOUND>
Cc1ccc(Cl)cc1-n1c(C)nc2c(cnn2-c2ccnc3c(C(F)(F)F)cccc23)c1=O

>  <GI50>
> 100 µM

$$$$
